assay: chemical genetic growth profiling, strain panel (AID 1159580);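 further: tested at 20 µM; growth read once vehicle control cultures reached saturation at 30 °C; lower values mean less growth of the strain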; details: S. cerevisiae deletion strains, growth OD, locus YGR229C, strain SMI1, hits give low values
The campaign covered roughly 5,500 compounds. About 2,000 (36%) were called active. Not shown: some 18% with an inconclusive outcome. The list shows a part of the results.
Output T for records whose normalized growth is lower than 1, F for records at or above 1.

N#C/C(=C\c1ccc(O)c(O)c1)C(=O)NCCc1ccccc1 : T
N#CC(C#N)=Cc1cc(O)c(O)c(O)c1 : T
N#C/C(=C\c1ccc(O)c(O)c1)C(=O)c1ccc(O)c(O)c1 : F
N#C/C(=C\c1ccc(O)c(O)c1)C(=O)NCCCNC(=O)/C(C#N)=C/c1ccc(O)c(O)c1 : T
